System: Escherichia coli TOP10
METHOD: shrunken log2 fold change of peptide-encoding DNA abundance (4.5 h post-induction vs induction); higher = less antimicrobial activity (less host growth inhibition)
CONDITIONS: time post-induction: 4.5 h; library: site-saturation at positions 5, 18, 19, 20
ENDPOINT_NAME: shrunken log2 fold change
# print the numeric value only

Query: Given the sequence RRIRVRPPRLPRPRPRPKTNPRP , what is its reported shrunken log2 fold change?
Reply: -0.117

Query: Given the sequence RRIRGRPPRLPRPRPRPVCHPRP , what is its reported shrunken log2 fold change?
Reply: 0.54

Query: Given the sequence RRIRNRPPRLPRPRPRPFSSPRP , what is its reported shrunken log2 fold change?
Reply: -0.0316

Query: Given the sequence RRIRERPPRLPRPRPRPAIFPRP , what is its reported shrunken log2 fold change?
Reply: -0.12

Query: Given the sequence RRIRSRPPRLPRPRPRPWAGPRP , what is its reported shrunken log2 fold change?
Reply: -0.255

Query: Given the sequence RRIRCRPPRLPRPRPRPLPMPRP , what is its reported shrunken log2 fold change?
Reply: 0.074

Query: Given the sequence RRIRGRPPRLPRPRPRPKYCPRP , what is its reported shrunken log2 fold change?
Reply: 0.203

Query: Given the sequence RRIRQRPPRLPRPRPRPESKPRP , what is its reported shrunken log2 fold change?
Reply: 0.0494

Query: Given the sequence RRIRQRPPRLPRPRPRPPAHPRP , what is its reported shrunken log2 fold change?
Reply: 0.0556

Query: Given the sequence RRIRFRPPRLPRPRPRPTAGPRP , what is its reported shrunken log2 fold change?
Reply: 0.0761

Query: Given the sequence RRIRIRPPRLPRPRPRPWWPPRP , what is its reported shrunken log2 fold change?
Reply: 0.027

Query: Given the sequence RRIRIRPPRLPRPRPRPDSDPRP , what is its reported shrunken log2 fold change?
Reply: -0.0273

Query: Given the sequence RRIRWRPPRLPRPRPRPVPIPRP , what is its reported shrunken log2 fold change?
Reply: -0.0691

Query: Given the sequence RRIRQRPPRLPRPRPRPYIHPRP , what is its reported shrunken log2 fold change?
Reply: -0.912

Query: Given the sequence RRIRTRPPRLPRPRPRPFNKPRP , what is its reported shrunken log2 fold change?
Reply: 0.0555

---

System: Escherichia coli TOP10
METHOD: shrunken log2 fold change of peptide-encoding DNA abundance (4.5 h post-induction vs induction); higher = less antimicrobial activity (less host growth inhibition)
CONDITIONS: time post-induction: 4.5 h; library: site-saturation at positions 5, 18, 19, 20
Field: class. Source value: shrunken log2 fold change. Ranges: group 1: < -0.08; group 2: ≥ -0.08 and < 0.08; group 3: ≥ 0.08

Query: Would you mind sorting RRIRNRPPRLPRPRPRPMMNPRP into the appropriate category?
Reply: group 3

Query: Would you mind sorting RRIRHRPPRLPRPRPRPYWMPRP into the appropriate category?
Reply: group 1

Query: Would you mind sorting RRIRERPPRLPRPRPRPSEHPRP into the appropriate category?
Reply: group 2

Query: Would you mind sorting RRIRIRPPRLPRPRPRPFQMPRP into the appropriate category?
Reply: group 1

Query: Would you mind sorting RRIRMRPPRLPRPRPRPDVCPRP into the appropriate category?
Reply: group 2

Query: Would you mind sorting RRIRVRPPRLPRPRPRPIADPRP into the appropriate category?
Reply: group 2

Query: Would you mind sorting RRIRRRPPRLPRPRPRPTPHPRP into the appropriate category?
Reply: group 3

Query: Would you mind sorting RRIRARPPRLPRPRPRPHDLPRP into the appropriate category?
Reply: group 3

Query: Would you mind sorting RRIRSRPPRLPRPRPRPFLEPRP into the appropriate category?
Reply: group 1

Query: Would you mind sorting RRIRGRPPRLPRPRPRPREHPRP into the appropriate category?
Reply: group 3

Query: Would you mind sorting RRIRDRPPRLPRPRPRPQKIPRP into the appropriate category?
Reply: group 2

Query: Would you mind sorting RRIRMRPPRLPRPRPRPHRVPRP into the appropriate category?
Reply: group 2

Query: Would you mind sorting RRIRYRPPRLPRPRPRPCRTPRP into the appropriate category?
Reply: group 1

Query: Would you mind sorting RRIRARPPRLPRPRPRPWEKPRP into the appropriate category?
Reply: group 1

Query: Would you mind sorting RRIRTRPPRLPRPRPRPIMWPRP into the appropriate category?
Reply: group 2

Query: Would you mind sorting RRIRGRPPRLPRPRPRPVVMPRP into the appropriate category?
Reply: group 3

Query: Would you mind sorting RRIRQRPPRLPRPRPRPGPIPRP into the appropriate category?
Reply: group 3

Query: Would you mind sorting RRIRHRPPRLPRPRPRPAVHPRP into the appropriate category?
Reply: group 2

Query: Would you mind sorting RRIRWRPPRLPRPRPRPFMSPRP into the appropriate category?
Reply: group 2

Query: Would you mind sorting RRIRIRPPRLPRPRPRPEKQPRP into the appropriate category?
Reply: group 2

Query: Would you mind sorting RRIRTRPPRLPRPRPRPKMYPRP into the appropriate category?
Reply: group 1

Query: Would you mind sorting RRIRKRPPRLPRPRPRPNCVPRP into the appropriate category?
Reply: group 3

Query: Would you mind sorting RRIRKRPPRLPRPRPRPYWKPRP into the appropriate category?
Reply: group 2

Query: Would you mind sorting RRIRARPPRLPRPRPRPQTLPRP into the appropriate category?
Reply: group 3

Query: Would you mind sorting RRIRNRPPRLPRPRPRPMDFPRP into the appropriate category?
Reply: group 1

Query: Would you mind sorting RRIRFRPPRLPRPRPRPEPRPRP into the appropriate category?
Reply: group 3

Query: Would you mind sorting RRIRPRPPRLPRPRPRPYMPPRP into the appropriate category?
Reply: group 1

Query: Would you mind sorting RRIRVRPPRLPRPRPRPKTDPRP into the appropriate category?
Reply: group 1

Query: Would you mind sorting RRIRYRPPRLPRPRPRPVWQPRP into the appropriate category?
Reply: group 1

Query: Would you mind sorting RRIRPRPPRLPRPRPRPVDEPRP into the appropriate category?
Reply: group 2

Query: Would you mind sorting RRIRARPPRLPRPRPRPGCMPRP into the appropriate category?
Reply: group 3

---

System: Escherichia coli TOP10;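 also: peptides expressed intracellularly from a pBAD plasmid library in pooled LB shake-flask culture, induced with 0.3% L-arabinose, DNA abundance read by NGS, three biological replicates, DESeq2 with apeglm shrinkage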
METHOD: shrunken log2 fold change of peptide-encoding DNA abundance (4.5 h post-induction vs induction); higher = less antimicrobial activity (less host growth inhibition)
CONDITIONS: time post-induction: 4.5 h; library: site-saturation at positions 5, 18, 19, 20
ENDPOINT_NAME: shrunken log2 fold change
# print the numeric value only

Query: Given the sequence RRIRFRPPRLPRPRPRPRSPPRP , what is its reported shrunken log2 fold change?
Reply: 1.06

Query: Given the sequence RRIRRRPPRLPRPRPRPVPVPRP , what is its reported shrunken log2 fold change?
Reply: 0.128

Query: Given the sequence RRIRVRPPRLPRPRPRPHRHPRP , what is its reported shrunken log2 fold change?
Reply: -0.357

Query: Given the sequence RRIRERPPRLPRPRPRPKLVPRP , what is its reported shrunken log2 fold change?
Reply: 0.0398

Query: Given the sequence RRIRSRPPRLPRPRPRPKCVPRP , what is its reported shrunken log2 fold change?
Reply: -0.138

Query: Given the sequence RRIRWRPPRLPRPRPRPQLKPRP , what is its reported shrunken log2 fold change?
Reply: 0.147

Query: Given the sequence RRIRMRPPRLPRPRPRPDSCPRP , what is its reported shrunken log2 fold change?
Reply: -0.00101

Query: Given the sequence RRIRFRPPRLPRPRPRPFRLPRP , what is its reported shrunken log2 fold change?
Reply: -0.197

Query: Given the sequence RRIRARPPRLPRPRPRPLQVPRP , what is its reported shrunken log2 fold change?
Reply: 0.151

Query: Given the sequence RRIRHRPPRLPRPRPRPIYVPRP , what is its reported shrunken log2 fold change?
Reply: -0.0627

Query: Given the sequence RRIRHRPPRLPRPRPRPDSFPRP , what is its reported shrunken log2 fold change?
Reply: -0.477

Query: Given the sequence RRIRVRPPRLPRPRPRPQNYPRP , what is its reported shrunken log2 fold change?
Reply: -0.285

Query: Given the sequence RRIRKRPPRLPRPRPRPGVDPRP , what is its reported shrunken log2 fold change?
Reply: 0.824

Query: Given the sequence RRIRWRPPRLPRPRPRPQCYPRP , what is its reported shrunken log2 fold change?
Reply: -0.252

Query: Given the sequence RRIRSRPPRLPRPRPRPWMNPRP , what is its reported shrunken log2 fold change?
Reply: -0.267

Query: Given the sequence RRIRYRPPRLPRPRPRPLWHPRP , what is its reported shrunken log2 fold change?
Reply: -0.48

Query: Given the sequence RRIRPRPPRLPRPRPRPQFTPRP , what is its reported shrunken log2 fold change?
Reply: -0.285

Query: Given the sequence RRIRSRPPRLPRPRPRPEVEPRP , what is its reported shrunken log2 fold change?
Reply: 0.112

Query: Given the sequence RRIRTRPPRLPRPRPRPDVRPRP , what is its reported shrunken log2 fold change?
Reply: -0.31

Query: Given the sequence RRIRERPPRLPRPRPRPTQGPRP , what is its reported shrunken log2 fold change?
Reply: 0.555

Query: Given the sequence RRIRWRPPRLPRPRPRPRLAPRP , what is its reported shrunken log2 fold change?
Reply: 0.84

Query: Given the sequence RRIRNRPPRLPRPRPRPPRDPRP , what is its reported shrunken log2 fold change?
Reply: 0.499

Query: Given the sequence RRIRSRPPRLPRPRPRPCYGPRP , what is its reported shrunken log2 fold change?
Reply: -0.523

Query: Given the sequence RRIRFRPPRLPRPRPRPWDGPRP , what is its reported shrunken log2 fold change?
Reply: 0.00772

Query: Given the sequence RRIRSRPPRLPRPRPRPQEQPRP , what is its reported shrunken log2 fold change?
Reply: 0.0984

Query: Given the sequence RRIRARPPRLPRPRPRPWLVPRP , what is its reported shrunken log2 fold change?
Reply: 0.0219

Query: Given the sequence RRIRERPPRLPRPRPRPGIGPRP , what is its reported shrunken log2 fold change?
Reply: -0.0295

Query: Given the sequence RRIRKRPPRLPRPRPRPSSIPRP , what is its reported shrunken log2 fold change?
Reply: -0.0636

Query: Given the sequence RRIRQRPPRLPRPRPRPNVYPRP , what is its reported shrunken log2 fold change?
Reply: -0.222

Query: Given the sequence RRIRTRPPRLPRPRPRPEKYPRP , what is its reported shrunken log2 fold change?
Reply: -0.156

Query: Given the sequence RRIRERPPRLPRPRPRPQHMPRP , what is its reported shrunken log2 fold change?
Reply: -0.735

Query: Given the sequence RRIRARPPRLPRPRPRPNLLPRP , what is its reported shrunken log2 fold change?
Reply: 0.00335
